FYI, the data here is from paper PMC2873192.

Biological target: T1, integrin-linked kinase (ILK) ankyrin repeat domain (ARD) (UniProt Q13418 1-171)
T1 sequence: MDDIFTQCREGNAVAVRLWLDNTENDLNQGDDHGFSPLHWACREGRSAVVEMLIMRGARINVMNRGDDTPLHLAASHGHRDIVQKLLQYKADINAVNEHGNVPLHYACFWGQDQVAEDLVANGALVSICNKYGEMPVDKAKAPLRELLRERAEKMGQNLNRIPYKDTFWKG
Test: ITC

binder: PINCH LIM1 domain (domain or fragment) MANALASATCERCKGGFAPAEKIVNSNGELYHEQCFVCAQCFQQFPEGLFYEFEGRKYCEHDFQMLFAPC
Kd: ~68 nM
